melting point for assorted compounds

Compound	Readout kind	Experimental result
CC(=O)SCC(C(=O)NCCc1ccncc1)C(F)(F)F (stereo not drawn)	melting point	87 to 89 °C
CCCCCN1OCCN(c2ccc(Cl)c(Cl)c2)C1=O	melting point	< 40 °C
O=CNc1c(-c2ccccc2)sc2ccccc12	melting point	78 to 79 °C

Record N#Cc1ccc(C(=O)N2CCc3c(n(Cc4cccc(C#N)c4)c4ccccc34)C2)cc1 , field melting point: 178 to 180 °C

Record Cc1sc2c(Br)c3ccccc3c(-c3ccc(OS(=O)(=O)c4ccc(C(=O)O)c(O)c4)c(C4CCCC4)c3)c2c1C , field melting point: > 225 °C

Record Cc1ccc(OCC2CO2)c([N+](=O)[O-])c1[N+](=O)[O-] (stereo not drawn) , field melting point: 121 to 123 °C

Record CC(C)N1CC2(COc3ccc(N)cc3OC2)OC1=O (stereo not drawn) , field melting point: 157 to 159 °C

Record Cc1oc2c(-c3ccc(F)cc3)c(-c3ccc(S(C)(=O)=O)cc3)nn2c1-c1ccccc1 , field melting point: 234 to 236 °C

Record CC(C)(C)OCCOCCn1cc(C(=O)NCc2ccc(Cl)cc2)c(=O)c2cc(CN3CCOCC3)ccc21 , field melting point: 130 to 132 °C

Record O=C(CC1=C(n2nc(-c3c(-c4ccccc4)nn4ccccc34)ccc2=O)CCCC1)N1CCSCC1 , field melting point: 180 to 182 °C

Record O=C1c2c(ccc(O)c2O)CC1C(=O)c1c(F)c(F)c(F)c(F)c1F (stereo not drawn) , field melting point: 114 to 115 °C

Record CS(=O)(=O)c1ccc(-c2nn3c4c(oc3c2-c2ccc(F)cc2)CSCC4)cc1 , field melting point: 178 to 180 °C

Record CCOC(=O)/C(C)=C(/C)c1cn(C(c2ccccc2)(c2ccccc2)c2ccccc2)cn1 , field melting point: 166 to 168 °C

Record COC(=O)[C@@H]1CCCN1C(=O)c1ccc(OC)c(O)c1[N+](=O)[O-] , field melting point: 108 to 110 °C

Record O=C(c1ccc(F)cc1)c1ccc(Cl)cn1 , field melting point: 98 to 100 °C

Record Cc1ccc(-c2[nH]c3c(Br)cc(Br)cc3c(=O)c2Cc2ccncc2)cc1 , field melting point: 206 to 208 °C

Record CCOC(=O)C(C#N)C1NC(=O)c2sccc2-n2cccc21 (stereo not drawn) , field melting point: 195 °C

Record COc1cc(OC)c2c(=O)[nH]c(-c3ccc(CCC(=O)O)cc3)nc2c1 , field melting point: 251 °C

Record CCCCCc1cc(O)c2c3c(c(=O)oc2c1)SC(C)(C)C3 , field melting point: 203 to 206 °C

Record O=C(CCl)NC(C(=O)O)c1ccc2c(c1)CCS2 (stereo not drawn) , field melting point: 173 to 175 °C

Record O=C(c1ccc(F)cc1)C1CCN(S(=O)(=O)c2ccccc2)CC1 , field melting point: 106 to 109 °C

Record CCOC(=O)c1cc2c([nH]1)CCCC2 , field melting point: 70 to 72 °C

Record N=C(N)c1ccc2cc(OC(=O)C3CCC3)ccc2c1 , field melting point: 225 to 230 °C

Record CC(O)=C(C#N)C(=O)Nc1ccc(F)cc1 , field melting point: 165 to 166 °C

###

melting point for assorted molecules

Molecule	Experimental result
CN(C)C(=O)c1nc(-c2ccccc2)nc2c1c1ccccc1n2C	193 to 195 °C

Record CCCN/C(C)=C(/C#N)C(N)=S , field melting point: 149 to 151 °C

Record Fc1ccc(-c2[nH]c(=S)sc2CCCl)cc1 , field melting point: 176 °C

Record Cc1ccc(-c2cn(C)cc(-c3cccc(C)c3)c2=O)cc1 , field melting point: 155 to 157 °C

Record CC(C)c1ccc(C2(OC(=O)N(C)C)C(=O)c3ccccc3C2=O)c(OC(=O)N(C)C)c1 , field melting point: 203 to 205 °C

Record Cc1cccc2c1C1(CCC(=O)NC1=O)CCC2=O (stereo unspecified) , field melting point: 285 to 287 °C

###

melting point for assorted molecules

Record FC(F)(F)c1cc(CNCc2cc3ccccc3nc2N2CCN(CC3CCCCC3)CC2)cc(C(F)(F)F)c1 , field melting point: 54 to 55 °C

Record CC(C)Nc1cccnc1N1CCN(C(=O)c2ccc(C(=O)N[C@H](C)CO)cn2)CC1 , field melting point: 129 to 130 °C

Record COC(=O)c1ccc(Cn2ccc(OCc3ccc(F)cc3F)c(Br)c2=O)cc1 , field melting point: 136 to 139 °C

Record CC(C)(C)c1cc(CNn2ccnc2)cc(C(C)(C)C)c1O , field melting point: 171 to 174 °C

###

melting point for assorted compounds

Record CC(C)(Cc1ccc(Cl)cc1Cl)C(O)(Cn1cncn1)Cn1cncn1 , field melting point: 126 °C

Record COc1ccc(N2C[C@@](C)(COC(=O)c3ccc([N+](=O)[O-])cc3)OC2=O)cc1 , field melting point: 156 to 158 °C

Record N#CC(=NO)C(=O)c1ccccc1 , field melting point: 117 to 119 °C

Record CCCS(=O)(=O)c1cc(C(C)C)c(C#N)cc1C(C)C , field melting point: 113 to 115 °C

Record Nc1cnccc1C(=O)Nc1ccc(-n2nc(C(F)(F)F)cc2C(F)(F)F)cc1 , field melting point: 101 to 102 °C

Record CN(c1ccoc1)c1n[nH]c2ncnc(Nc3cccc(Cl)c3)c12 , field melting point: 207 to 209 °C

Record COC(=O)CCCC(=O)c1ccc(OCCCC/C=C/c2ccc(OC)cc2)c(O)c1 , field melting point: 78 to 80 °C

Record O=C(Nc1cccc(Cl)c1)O[C@H]1COC(c2ccccc2)=N[C@@H]1c1ccccc1 (racemic) , field melting point: 160 °C

Record COC(=O)c1ccc(N)cc1S(=O)(=O)NC(C)(C)C , field melting point: 198 to 199 °C

###

melting point for assorted compounds

Consider the following illustrative entries.
Compound	melting point
O=[N+]([O-])c1c(Br)nn(Cc2ccc(Cl)cc2)c1NCc1ccccc1	139 to 141 °C
COc1ccc(SCC(=O)c2ccccc2)cc1C	41 to 43 °C

Record COc1ccc(Nc2nc(NC3CCCCCC3)nc(Oc3ccccc3C#CC(C)(C)O)n2)cc1Cl , field melting point: 150 to 158 °C

###

Readout kind: melting point

Compound	melting point
COC(=O)c1ccc(OCC(O)c2cc3cc(C(C)(C)C)ccc3o2)cc1 (stereo not drawn)	110 to 112 °C
O=C(Nc1cccc2c1C(=O)c1c-2n[nH]c1-c1ccc(C(=O)[C@]23CN[C@H](CN2)C3)s1)NN1CCOCC1	> 300 °C

// next entry
Record CC1C=C2CCCCCCCCCC=C2C1 (stereo not drawn) , field melting point: 98 to 103 °C

###

melting point for assorted compounds

Consider the following illustrative entries.
Compound	melting point
NC1=C(N=O)C(=O)N2CCN=C2N1Cc1ccc(Cl)cc1	238 to 241 °C
CCOC(=O)C(CC#N)(C(=O)OCC)C1COC(=O)C1 (centres undefined)	77 to 78 °C
O=C(c1nc(-c2ccccc2)nc2ccccc12)N1CCCC(CO)C1 (centres undefined)	142 °C
CCCCC(CC)CN(CCC)c1ccc(C2=C(C#N)C(=C(C#N)C#N)NC2=O)cc1 (centres undefined)	189 °C
CS(=O)(=O)Nc1ccc(-c2cc(-c3c(-c4cccc(Cl)c4)nc4ccccn34)ccn2)cc1	60 °C

Record CCOP(=O)(CC(=O)Nc1cc2c(Nc3ccc(F)c(Br)c3)ncnc2cn1)OCC , field melting point: 214 to 217 °C

Record CNc1cccc(S(=O)(=O)c2ccc(N)cc2)c1 , field melting point: 125 to 126 °C

Record c1ccc(OC2CCN(CCc3c[nH]c4ccccc34)CC2)cc1 , field melting point: 123 to 125 °C

Record C#Cc1cc2cn[nH]c2c(C(=O)NC2(C3CC3)CC2)c1NC(=O)c1cc(C(F)(F)F)nn1-c1ncccc1Cl , field melting point: 246 to 248 °C

Record O=C(O)CCNc1ccc(CNC(=O)C2Cc3ccccc3N2S(=O)(=O)c2ccc(-c3cccc(C(F)(F)F)c3)cc2)cc1 (centres undefined) , field melting point: 82 °C

Record O=S(=O)(Nc1ccc2c(OCc3ccc(-c4ccccc4)cc3F)cccc2c1)C(F)(F)F , field melting point: 123 to 125 °C

Record CCCOc1ccccc1-c1nc2cc(SC)ccc2c(=O)[nH]1 , field melting point: 156 to 158 °C

Record COc1cc(C)n2nc(SCc3ccccc3)nc2n1 , field melting point: 112 to 115 °C

Record N#CCNC(=O)C(Cl)c1ccccc1 (centres undefined) , field melting point: 73 to 74 °C

###

melting point for assorted compounds

Compound	Experimental result
COC(=O)n1nc2nc3n(c(=O)c2c1N)CCS3	200 to 203 °C
CC(=O)OCC(=O)Nc1nc2c(Oc3cc(-c4ccc(C(F)(F)F)cc4)ncn3)cccc2s1	119 to 138 °C
O=c1cc(-c2ccccc2F)oc2ccccc12	98 to 100 °C
CCOCc1nc2c(Cl)nc3ccccc3c2n1Cc1cc(-c2ccc(F)cc2)no1	189 to 190 °C
O=C(Nc1ccc(OCCN2CCOCC2)c2ccccc12)c1cccc(-c2cccnc2)c1	77 to 78 °C
COC(=O)Cc1cc(O)c(C(C)(C)C)cc1C	100 to 102 °C

// next entry
Record Cc1ccc(S(=O)(=O)N(C)c2cccc(-c3ccnc4c(C(=O)c5ccccc5)cnn34)c2)cc1 , field melting point: 170 to 171 °C
